From: ChEMBL document CHEMBL3885861

For each record, write down the corresponding gamma-GTP.
Species on record: Rattus norvegicus
Experiment Summary: Open TG-GATES - Regimen: Daily Repeat
Assay type: toxicity, organism-based, Sprague-Dawley
Design: regimen Daily Repeat, gender Male, age 6 weeks
Condition Summary: in vivo, po, 300 mg/kg, […], tissue Plasma, route gavage, dose level Middle, time 14 day
Numbers only, in IU/L.

O=C(N[C@H](CO)[C@H](O)c1ccc([N+](=O)[O-])cc1)C(Cl)Cl :: 1

Return reported gamma-GTP values for all items listed beneath this line.
1. CCN1CCCC1CNC(=O)c1cc(S(N)(=O)=O)ccc1OC (centres undefined) [SULPIRIDE]
2. CC(C)(S)[C@@H](N)C(=O)O
3. O=C(O)c1cccnc1

1
1
1.8
